assay: Oral bioavailability in rat at 2 mg/kg
Assay type: ADME, organism-based
cond: in vivo
reported endpoint: bioavailability (%)
Dear colleague, please return just the value in %, with no unit written.

Any idea what bioavailability was measured for "CNC(=O)Nc1cc(Oc2cncc(C)c2)c([C@H]2C[C@@H](O)C2)cn1" ? 39

----------
Hi there, I'd appreciate the recorded S0.5 for every entry that follows.
test system: UniProt P35557
Sequence (P35557 whole entry): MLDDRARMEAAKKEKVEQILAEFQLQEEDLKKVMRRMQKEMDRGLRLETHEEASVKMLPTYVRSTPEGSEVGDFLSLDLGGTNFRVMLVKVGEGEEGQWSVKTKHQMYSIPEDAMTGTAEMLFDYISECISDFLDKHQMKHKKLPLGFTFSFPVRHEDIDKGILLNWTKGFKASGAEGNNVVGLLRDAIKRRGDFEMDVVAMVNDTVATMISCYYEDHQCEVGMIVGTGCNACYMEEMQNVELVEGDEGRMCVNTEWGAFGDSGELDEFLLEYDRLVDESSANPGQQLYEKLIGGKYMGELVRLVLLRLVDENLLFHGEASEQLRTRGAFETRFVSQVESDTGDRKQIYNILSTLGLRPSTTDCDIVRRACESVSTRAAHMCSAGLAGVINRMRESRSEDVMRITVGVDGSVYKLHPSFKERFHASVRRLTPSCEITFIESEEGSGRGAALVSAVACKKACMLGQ
assay: Activation of human recombinant glucokinase assessed as enzyme affinity for glucose […] as substrate in presence of NAD+ by glucose 6-phosphate dehydrogenase coupled assay
Dear colleague, please return just the value in mM, with no unit written.

Any idea what S0.5 was measured for "CNC(=O)Nc1cc(Oc2cncc(C)c2)c([C@H]2CCC[C@H](O)C2)cn1" ? 0.51

CNC(=O)Nc1cc(Oc2cncc(C)c2)c([C@H]2C[C@@H]2CO)cn1 (relative stereo) , same question. 0.58

"CNC(=O)Nc1cc(Oc2cncc(OC)c2)c([C@@H]2CCCOC2)cn1" , same question. 0.62

"CNC(=O)Nc1cc(Oc2cncc(C)c2)c([C@H]2C[C@H](O)C2)cn1" , same question. 0.55

"CNC(=O)Nc1cc(Oc2cncc(OC)c2)c([C@H]2CCCOC2)cn1" , same question. 0.65

"CNC(=O)Nc1cc(Oc2cncc(OC)c2)c(C2=CCCOC2)cn1" , same question. 0.69

"CNC(=O)Nc1cc(Oc2cncc(C)c2)c(CCCCO)cn1" , same question. 0.54

"CNC(=O)Nc1cc(Oc2cncc(C)c2)c(CCCO)cn1" , same question. 0.55

"CNC(=O)Nc1cc(Oc2cncc(C)c2)c([C@H]2C[C@@H](O)C2)cn1" , same question. 0.66

"CNC(=O)Nc1cc(Oc2cncc(C)c2)c([C@@H]2CC[C@@H](O)C2)cn1" , same question. 0.47

CNC(=O)Nc1cc(Oc2cncc(C)c2)c([C@H]2C[C@@H]2C(C)(C)O)cn1 (relative stereo) , same question. 0.62

CNC(=O)Nc1cc(Oc2cncc(OC)c2)c([C@@H]2COCC[C@@H]2O)cn1 (relative stereo) , same question. 0.66

"CNC(=O)Nc1cc(Oc2cncc(OC)c2)c([C@@H]2CCOC2)cn1" , same question. 0.53

"CNC(=O)Nc1cc(Oc2cncc(OC)c2)c([C@H]2COCCC2(F)F)cn1" , same question. 0.51

"CNC(=O)Nc1cc(Oc2cncc(OC)c2)c(C2CCOCC2)cn1" , same question. 0.62

"CCOCCc1cnc(NC(=O)NC)cc1Oc1cncc(C)c1" , same question. 0.59

"CNC(=O)Nc1cc(Oc2cncc(OC)c2)c([C@H]2COCC[C@@H]2F)cn1" , same question. 0.85

"CNC(=O)Nc1cc(Oc2cncc(C)c2)c([C@H]2C[C@@H](C(C)(C)O)C2)cn1" , same question. 0.68

"CNC(=O)Nc1cc(Oc2cncc(C)c2)c([C@]2(O)C[C@H](O)C2)cn1" , same question. 0.67

"CNC(=O)Nc1cc(Oc2cncc(C)c2)c(CCO)cn1" , same question. 0.6

CNC(=O)Nc1cc(Oc2cncc(C)c2)c(C(C)CO)cn1 (stereo unspecified) , same question. 0.56
